Sourced from patent US20160177307

System: VEGF-165 (Homo sapiens), P15692-4
Sequence: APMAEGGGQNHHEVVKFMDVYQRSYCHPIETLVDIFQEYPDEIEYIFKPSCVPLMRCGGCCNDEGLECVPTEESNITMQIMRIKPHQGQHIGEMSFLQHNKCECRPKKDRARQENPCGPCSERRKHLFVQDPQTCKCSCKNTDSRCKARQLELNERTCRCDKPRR
Assay: filter
Details: Nap-dU, Bn-dU; C3; 1 Heg linker; 2'-OMe; VEGF
measure: Kd (nM)

>>> df
                            orderedresidues  valuemeasured
0  CCGTTCAAGTGCTTTAGATTTAAATGGTTACGTTACACGCGTTTATAGC [4149-8_314]          0.143
